Taken from ChEMBL document CHEMBL4265923.

assay_comment: Intrinsic clearance in monkey liver microsomes
Format: ADME, Macaca mulatta, microsome
condition_description: rhesus monkey

sample_smiles	CLH / µL/min/mg
COc1ncc(-c2nc3c(n2C(C)C)[C@H](c2ccc(Cl)cc2C)N(c2cc(Cl)ccc2C)C3=O)c(OC)n1	20

----------
assay_comment: Intrinsic clearance in rat liver microsomes
Assay type: ADME, microsome
Class (required): determined from CLint; valid ranges are LOW = under 70 µL/min/mg, MEDIUM = from 70 µL/min/mg up to 400 µL/min/mg, HIGH = 400 µL/min/mg and over

compound	qualitative_label
COc1ccc(F)cc1-c1nc2c(n1C(C)C)C(c1ccc(Cl)cc1C)N(c1cc(Cl)ccc1C)C2=O (racemic)	HIGH
COc1ccccc1-c1nc2c(n1C(C)C)[C@H](c1ccc(Cl)cc1C)N(c1cc(Cl)ccc1C)C2=O	MEDIUM
COc1cccc(F)c1-c1nc2c(n1C(C)C)C(c1ccc(Cl)cc1C)N(c1cc(Cl)ccc1C)C2=O (racemic)	HIGH
COc1ncc(-c2nc3c(n2C(C)C)C(c2ccc(Cl)cc2C)N(c2cc(Cl)ccc2C)C3=O)c(OC)n1 (racemic)	LOW
COc1ncc(-c2nc3c(n2C(C)C)[C@@H](c2ccc(Cl)cc2C)N(c2cc(Cl)ccc2C)C3=O)c(OC)n1	LOW
COc1ccncc1-c1nc2c(n1C(C)C)[C@H](c1ccc(Cl)cc1C)N(c1cc(Cl)ccc1C)C2=O	MEDIUM
COc1ncc(-c2nc3c(n2C(C)C)[C@H](c2ccc(Cl)cc2C)N(c2cc(Cl)ccc2C)C3=O)c(OC)n1	LOW
COc1ncncc1-c1nc2c(n1C(C)C)C(c1ccc(Cl)cc1C)N(c1cc(Cl)ccc1C)C2=O (racemic)	MEDIUM
COc1ccccc1-n1nc2c(c1C(C)C)[C@H](c1ccc(Cl)cc1C)N(c1cc(Cl)ccc1C)C2=O	MEDIUM

----------
assay_comment: Half life in rat liver microsomes
Type: ADME, microsome
Returns: string. Value is Satisfied if measured half-life is below 10 min, and Not satisfied if it is greater than or equal to it.

compound	qualitative_label
COc1ccc(-c2nc3c(n2C(C)C)C(c2ccc(Cl)cc2C)N(c2cc(Cl)ccc2C)C3=O)c(OC)n1 (racemic)	Not satisfied
COc1ncncc1-c1nc2c(n1C(C)C)C(c1ccc(Cl)cc1C)N(c1cc(Cl)ccc1C)C2=O (racemic)	Satisfied
COc1ccc(F)cc1-c1nc2c(n1C(C)C)C(c1ccc(Cl)cc1C)N(c1cc(Cl)ccc1C)C2=O (racemic)	Satisfied
COc1cccc(F)c1-c1nc2c(n1C(C)C)C(c1ccc(Cl)cc1C)N(c1cc(Cl)ccc1C)C2=O (racemic)	Satisfied
COc1ccccc1-c1nc2c(n1C(C)C)[C@H](c1ccc(Cl)cc1C)N(c1cc(Cl)ccc1C)C2=O	Satisfied
COc1ncc(-c2nc3c(n2C(C)C)[C@@H](c2ccc(Cl)cc2C)N(c2cc(Cl)ccc2C)C3=O)c(OC)n1	Not satisfied
COc1ncc(-c2nc3c(n2C(C)C)[C@H](c2ccc(Cl)cc2C)N(c2cc(Cl)ccc2C)C3=O)c(OC)n1	Not satisfied
COc1ccncc1-c1nc2c(n1C(C)C)[C@H](c1ccc(Cl)cc1C)N(c1cc(Cl)ccc1C)C2=O	Not satisfied
COc1ncc(-c2nc3c(n2C(C)C)C(c2ccc(Cl)cc2C)N(c2cc(Cl)ccc2C)C3=O)c(OC)n1 (racemic)	Not satisfied
